- protocol_notes: NCI Yeast Anticancer Drug Screen. Data for the cln2 rad14 strain (AID 165);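 further: 0% = growth equal to vehicle treated cultures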
- protocol_conditions: S. cerevisiae cln2 rad14 strain, at 50.0 µM (retest, dose inferred, filed as 5.0)
About 79,000 compounds went through this panel and 15% of them were active in at least one assay; those are over-represented in the sample as a whole. Calls of active or inactive are those of the source. No stated cut-off is given here; in the data, active means growth inhibition above about 70%; inactive means the rest.
Labels: active, inactive

O=C1N(Cc2ccccc2)CC1(c1ccccc1)C1CCCCC1O (configuration not stated) :: active
Cc1ccc(C(=O)N2CCN(C(=O)c3ccc(C)cc3)c3ccccc32)cc1 :: inactive
O=C(c1ccccc1)c1ccc(OCC2CO2)cc1 (configuration not stated) :: inactive
N#CSCCSCc1ccc(Cl)cc1 :: active
Cc1ccc(S(=O)(=O)N/N=C/c2cc(I)cc([N+](=O)[O-])c2O)cc1 :: active
ClCc1ccc2oc3ccccc3c2c1 :: inactive
CN(C)/C=C(\C(=O)c1ccccc1)n1nc(-c2ccccc2)cc1-c1ccccc1 :: inactive
CCC(=O)Oc1c(Br)c(Br)c(Br)c(Br)c1Br :: inactive
CCn1c2ccccc2c(=O)c2c(OC)ccc(OC)c21 :: inactive
CC(CCOP(=O)(O)OCCC(C)CC(C)(C)C)CC(C)(C)C (configuration not stated) :: inactive
C/C(=N/O)c1cccc(C(F)(F)F)c1 :: inactive
CCCCOc1ccc(CN2CCOC2=O)cc1 :: inactive

###

- protocol_notes: NCI Yeast Anticancer Drug Screen. Data for the mlh1 rad18 strain (AID 175)
- protocol_conditions: S. cerevisiae mlh1 rad18 strain growth inhibition; at 50.0 µM; active compounds read high
About 79,000 compounds went through this panel and 15% of them were active in at least one assay; those are over-represented in the sample as a whole. The source made the active and inactive calls. No stated cut-off is given here; in the data, active means growth inhibition above about 70%; inactive means the rest.
quantity_measured: growth inhibition

Cc1ccc(S(=O)(=O)CC(=O)CC(=O)C(=O)Nc2cc(C)ccc2C)cc1 :: 12.6% (inactive)
CC(=O)N(c1ccccc1)C(C)C :: 9.8% (inactive)
CC(=O)NCCN(C)C :: 88.8% (active)
COC(=O)C1=C(C)NC(C)=C([N+](=O)[O-])C1c1cccc(N=O)c1 (configuration not stated) :: 84.4% (active)
CCOC(=O)/C(=C\c1ccc(Br)cc1)C(C)=O :: 91.7% (active)
Oc1ccccc1C1CCCCC1 :: 93.2% (active)
N#CC1C(=O)NC(=O)CC1c1ccccc1 (configuration not stated) :: 99.2% (active)
COc1ccc(C(=O)C(c2ccc(OC)cc2)C2(O)C(=O)Nc3c(C)cc(Cl)cc32)cc1 (configuration not stated) :: 38.7% (inactive)
CN(Cc1cc(Br)cc(Br)c1O)Cc1c[nH]c2ccccc12 :: 74.5% (active)
O=C1c2cc(F)ccc2-c2c(F)cc(F)c(F)c21 :: 46.8% (inactive)
O=C(Nc1nc2ccc([N+](=O)[O-])cc2s1)C(=O)C(C1OC(=O)c2ccccc21)[N+](=O)[O-] (configuration not stated) :: 76% (active)
ClCc1c(-c2ccccc2)oc(-c2ccccc2)c1CCl :: 73.4% (active)

###

growth inhibition: recorded values
- protocol_notes: NCI Yeast Anticancer Drug Screen. Data for the mec2-1 strain (AID 157)
- protocol_conditions: S. cerevisiae mec2-1 strain, at 50.0 µM (retest, dose inferred, filed as 5.0), active compounds read high
- Method: Growth inhibition of yeast strains with defined genetic alterations is measured as a screen for potential anti-cancer activity. Selected strains with alterations in DNA damage repair or cell cycle control were exposed to compounds and growth inhibition was measured relative to vehicle treated controls. The strain used in this assay is mec2-1
This is part of a sample that, as a whole, favours compounds with a hit. Of some 79,000 tested, about 15% had one in any assay.
quantity_measured: growth inhibition (%)

c1ccc(-c2n[nH]c3c4ccccc4c4ccccc4c23)cc1 :: 98
Clc1ccc(CN2COc3c(ccc4ccccc34)C2)cc1 :: 43
CCCCCCCCCCOC1C(C(O)CNCCCN(C)C)OC2OC3(CCCCC3)OC21 (configuration not stated) :: 98
Cc1[nH]nc(C(F)(F)F)c1N=NN1CCOCC1 :: 99
CC(=O)Nc1ccc(S(=O)(=O)N/N=C/c2cc(I)cc([N+](=O)[O-])c2O)cc1 :: 81
c1cc[c]([Sn]([CH]2c3ccccc3-c3ccccc32)([CH]2c3ccccc3-c3ccccc32)[CH]2c3ccccc3-c3ccccc32)cc1 :: 2
c1ccc([P+](CCCCCC[P+](c2ccccc2)(c2ccccc2)c2ccccc2)(c2ccccc2)c2ccccc2)cc1 :: 94
Clc1ccc2c(Cl)c3c(nc2c1)CCCC3 :: 99
CCCCCNc1ccc2c(cc1=O)C(NC(C)=O)CCc1cc(OC)c(OC)c(OC)c1-2 (configuration not stated) :: 97
CC(C)c1ccc(C2C3=C(N=C4SCC(=O)N42)C(=O)c2ccccc23)cc1 (configuration not stated) :: 3
CCS(=O)(=O)c1ccc(NC(=O)OC2CC(C)CCC2C(C)C)cc1 (configuration not stated) :: 94
CC(C)C1(Cl)CCC2C3(C)CCCC(C)(C(=O)O)C3CC(Cl)C2(Cl)C1Cl (configuration not stated) :: 78
N#CSCC(=O)c1ccccc1 :: 99
Cn1c(=O)c2c(nnc(-c3ccccc3)[n+]2[O-])n(C)c1=O :: 97
Cc1nn(C(=S)S)c(C)c1N=Nc1ccc(Br)cc1 :: 99
O=C1C(=O)C(Cl)=C(Cl)C(Cl)=C1Cl :: 99
S=C(S)NCCN1CCNCC1 :: -10
O=NNc1ncc(Sc2ccccc2)nc1Sc1ccccc1 :: 13
O=C(Nc1ccccc1O)/C(Cl)=C/Cl :: 97
Cc1[nH]nc(C(=O)OC(C)C)c1N=NN(C)C :: 98
C[Si](C)(C)C1=C([Si](C)(C)C)C(Cl)(Cl)C1=O :: 17
O=C(/C=C(/Nc1ccccc1)C(=O)c1ccccc1)c1ccccc1 :: 96
CCCCCc1cc(C(=O)OC/C(C)=N/O)c2ccccc2n1 :: 95
COC(=O)C(CBr)CBr :: 99
CC(C)(C)C(=O)CC(=O)C(F)(F)C(F)(F)C(F)(F)F.[Ag] :: 99
CCCCCCCCCCCCNC(=O)OCC(C)O (configuration not stated) (tested in a mixture with another compound) :: 93
CSc1cc(-c2cc3ccccc3o2)oc(=O)c1C#N :: -10
O=C(/C=C\c1ccc([N+](=O)[O-])o1)/C=C/c1ccc([N+](=O)[O-])o1 :: 98
S=C(Nc1ccc(Br)c(Cl)c1)SCc1ccc2c(c1)OCO2 :: 98
c1ccc([Si](C[CH2][Sn]([c]2ccccc2)([c]2ccccc2)[c]2ccccc2)(c2ccccc2)c2ccc([Si](C[CH2][Sn]([c]3ccccc3)([c]3ccccc3)[c]3ccccc3)(c3ccccc3)c3ccccc3)cc2)cc1 :: 99
CCCCCCC/C=C/C(=O)OC1C(OC2C(OC(CCCCCCC)CC(=O)OC(CCCCCCC)CC(=O)O)OC(C)C(O)C2O)OC(C)C(O)C1O (configuration not stated) :: 57
COC1/C=C\OC2(C)Oc3c(C)c(O)c4c(c3C2=O)C2=NC(C)(C)N(c3ccccc3)C2=C(NC(=O)/C(C)=C\C=C\C(C)C(O)C(C)C(O)C(C)C(OC(C)=O)C1C)C4=O (configuration not stated) :: 95
Fc1ccc2[nH]ccc2c1 :: 13
O=C1Nc2ccc([N+](=O)[O-])c3c([N+](=O)[O-])ccc1c23 :: 81
COc1cc2c(oc(=O)c3cc(C)cc(OC)c32)c2c(C3OC(C)C(O)C(C)(O)C3O)ccc(O)c12 (configuration not stated) :: 97
c1ccc(Cn2nnnc2-c2ccccc2)cc1 :: -43
BrCc1ccccc1C[P+](c1ccccc1)(c1ccccc1)c1ccccc1 :: 99
CC(C)CCCC(C)C1CCC2(C)C3=CCC4C(C)(CCC(O)C4(C)C)C3=CCC12C (configuration not stated) :: 94
CCOC(=O)C1=C(c2ccccc2)c2ccccc2OC1C(=O)O (configuration not stated) :: 60
CCCCCCCCCCCCCCCCCC[n+]1cccc(C(=O)c2ccccc2)c1 :: 100
C(/C=C/CC=Nc1ccccc1)=Nc1ccccc1 :: 3
CC(COC(=O)C(c1ccccc1)C1C=CCCC1)CN1CCCC1 (configuration not stated) :: 51

###

- protocol_notes: NCI Yeast Anticancer Drug Screen. Data for the rad50 strain (AID 155);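 further: 0% = growth of vehicle-only cultures of the same strain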
- protocol_conditions: S. cerevisiae rad50 strain growth inhibition; at 50.0 µM; active compounds read high
- Experimental: Growth inhibition of yeast strains with defined genetic alterations is measured as a screen for potential anti-cancer activity. Selected strains with alterations in DNA damage repair or cell cycle control were exposed to compounds and growth inhibition was measured relative to vehicle treated controls. The strain used in this assay is rad50
This is part of a sample that, as a whole, favours compounds with a hit. Of some 79,000 tested, about 15% had one in any assay. Calls of active or inactive are those of the source. No stated cut-off is given here; in the data, active means growth inhibition above about 70%; inactive means the rest.
quantity_measured: growth inhibition

Cc1ccc(C(=O)/C=C/c2ccco2)c(C)c1 :: 11.3% (inactive)
CCOC(=O)C(=Cc1ccccc1Br)C(=O)OCC :: 78.5% (active)
C1Cc2c3c4c(c5c2C(C1)CCC5)CCCC4CCC3 :: -11.5% (inactive)
Clc1ccc(CN2COc3c(ccc4cccnc34)C2)c(Cl)c1 :: 98.1% (active)
O=c1[nH]c2cc(Cl)ccc2nc1/C=C(\O)c1ccc(N2CCN(c3ccc(/C(O)=C/c4nc5ccc(Cl)cc5[nH]c4=O)cc3)CC2)cc1 :: 95.8% (active)
O=C1NC(=S)S/C1=C/c1ccc(/C=C2/SC(=S)NC2=O)cc1 :: 21% (inactive)
O=C(NC(=O)C(F)(F)F)Nc1ccc(Cl)cc1 :: -35.8% (inactive)
Nc1ccc2c(c1)CCc1ccccc1-2 :: 83.3% (active)
Nc1ncnc2nc[nH]c12.[Ag] :: 99.3% (active)
O=C1C=CC(=O)N1c1ccc(Cl)cc1Br :: 93.3% (active)
Oc1ccc(O)c2c1CC=C(Cl)C2 :: 52.4% (inactive)
COc1cccc(NC(=S)NC(Cc2ccccc2)c2ccccc2)c1 (centres undefined) :: 80.2% (active)
CSCCC(NC(=O)C(CCSC)NS(=O)(=O)Cc1ccccc1)C(=O)O (centres undefined) :: 98.9% (active)
CCCCCCCCCc1cc(O)c(O)cc1CCCCCCCCC :: 22.4% (inactive)
c1ccc([P+](CCCCCC[P+](c2ccccc2)(c2ccccc2)c2ccccc2)(c2ccccc2)c2ccccc2)cc1 :: 81.7% (active)
O=C(Nc1ccccc1)OC1CCCC1 :: 85.5% (active)
CCS(=O)(=O)/C=C\S(=O)(=O)CC :: 37.2% (inactive)
CCCCCCCCCCCCCCCCn1cc(C(O)CN(C)C)c2ccccc21 (centres undefined) :: 32.2% (inactive)
CC1CN(CC2CCCCCCCCCCC2=O)CC(C)O1 (centres undefined) :: 73.5% (active)
COC(=O)c1c(/C(=N/Nc2ccc([N+](=O)[O-])cc2)[N+](=O)[O-])ssc1=N :: 21.1% (inactive)
CC(C)C(O)C(C)C :: 83% (active)
COc1ccc(CSC(=S)Nc2ccc(Cl)c(C(F)(F)F)c2)cc1 :: 89.7% (active)
Cc1nc2c([N+](=O)[O-])c(N3CCCCC3)c([N+](=O)[O-])cc2[nH]1 :: 98.8% (active)
CC(C)(C)C(OC(=O)Nc1ccccc1)C(C)(C)C :: -0.7% (inactive)

Reference source: PubChem BioAssay (NCI)
